Target: HIPK3 (YAK1) (Homo sapiens)
Sequence (Q9H422 whole entry): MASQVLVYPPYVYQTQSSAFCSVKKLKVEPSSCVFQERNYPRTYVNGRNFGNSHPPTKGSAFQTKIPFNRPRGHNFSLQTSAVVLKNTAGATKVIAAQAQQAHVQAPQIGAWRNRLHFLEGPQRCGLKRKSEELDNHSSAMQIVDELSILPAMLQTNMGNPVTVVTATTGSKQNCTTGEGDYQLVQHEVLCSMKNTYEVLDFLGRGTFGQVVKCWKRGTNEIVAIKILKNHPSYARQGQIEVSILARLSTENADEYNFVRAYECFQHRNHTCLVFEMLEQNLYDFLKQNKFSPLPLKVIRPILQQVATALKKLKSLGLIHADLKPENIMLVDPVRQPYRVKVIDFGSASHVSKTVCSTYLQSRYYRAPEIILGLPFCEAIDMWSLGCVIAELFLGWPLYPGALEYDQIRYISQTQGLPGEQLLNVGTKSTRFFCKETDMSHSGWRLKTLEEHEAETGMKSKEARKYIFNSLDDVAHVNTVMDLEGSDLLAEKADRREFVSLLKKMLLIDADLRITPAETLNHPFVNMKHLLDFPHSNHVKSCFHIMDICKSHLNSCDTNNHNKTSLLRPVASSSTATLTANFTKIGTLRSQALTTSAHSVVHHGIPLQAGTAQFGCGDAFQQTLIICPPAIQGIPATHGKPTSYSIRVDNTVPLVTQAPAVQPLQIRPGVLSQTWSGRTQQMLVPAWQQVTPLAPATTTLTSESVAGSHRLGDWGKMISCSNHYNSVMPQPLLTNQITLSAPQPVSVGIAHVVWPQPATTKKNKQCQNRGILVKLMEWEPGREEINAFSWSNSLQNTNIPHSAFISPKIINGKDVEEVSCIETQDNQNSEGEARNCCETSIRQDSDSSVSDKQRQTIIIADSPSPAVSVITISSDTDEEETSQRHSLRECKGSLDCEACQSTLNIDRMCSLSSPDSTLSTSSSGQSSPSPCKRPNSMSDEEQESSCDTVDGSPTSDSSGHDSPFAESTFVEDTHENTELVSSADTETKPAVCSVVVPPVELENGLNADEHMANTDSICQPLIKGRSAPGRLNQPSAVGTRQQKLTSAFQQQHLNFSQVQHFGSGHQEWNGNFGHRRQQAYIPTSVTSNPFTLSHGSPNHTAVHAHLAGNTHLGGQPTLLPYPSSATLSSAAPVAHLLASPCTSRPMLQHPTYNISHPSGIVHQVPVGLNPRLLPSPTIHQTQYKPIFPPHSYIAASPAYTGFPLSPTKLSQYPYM
measured_endpoint: IC50 (nM)
Reply numerically in nM, unit not repeated.

Quote IC50 reported for CN1CCN(c2cc(C(=O)Nc3cc4cc(-c5cnn(C)c5)ccc4cn3)ccn2)CC1 [Compound 12] please.
42

* * *

Test system: ZR-75-1
Experiment: CellTiter-Glo Viability Assay, breast cancer
Format: cell-based
Conditions: Homo sapiens, 96 h; ZR-75-1, breast cancer, four days; read-out: EC50
measured_endpoint: pEC50
Keep in mind that pEC50 stands for -log10 of concentration in molar terms.

CN1CCN(c2ccc(NC(=O)c3n[nH]c4ccc(-c5cncc(NC(=O)C6CC6)c5)cc34)cn2)CC1 6.13
c1cncc(-c2ccc3[nH]nc(-c4cc5c(-c6cccnc6)cncc5[nH]4)c3c2)c1 5.47
CN(C)Cc1cncc(-c2cnc3[nH]nc(-c4nc5c(-c6cc(F)cc(N7CCOCC7)c6)cncc5[nH]4)c3c2)c1 5.77
CN1CCC(Sc2ccc3cnc(NC(=O)c4ccnc(SC5CCN(C)CC5)c4)cc3c2)CC1 5.84

Quote pEC50 reported for c1cc2cc(c1)-c1cncc3[nH]c(nc13)-c1n[nH]c3ccc(cc13)-c1cncc(c1)CNC2 please.
6.84

Quote pEC50 reported for Cc1ncc(-c2ccc3cnc(NC(=O)c4cnn(C5CCN(C)CC5)c4)cc3c2)o1 please.
6.66

Quote pEC50 reported for COc1ccc(NC(=O)c2n[nH]c3ccc(-c4cncc(CN5CCCCC5)c4)cc23)cn1 please.
6.19

Quote pEC50 reported for O=C(Nc1c[nH]nc1-c1nc2c(-c3cccc(F)c3)cncc2[nH]1)c1cccnc1 please.
6.95

Quote pEC50 reported for Cc1cc2ncc(-c3ccc4cnc(NC(=O)c5ccnc(N6CCN(C)CC6)c5)cc4c3)cc2[nH]1 please.
5.53

* * *

System: SW48
Test: CellTiter-Blue Cell Viability Assay
Format: cell-based
Settings: Homo sapiens, 96 h; SW48, KRASwt, APCmut, CTNNB1mut, 4 days
Description: […]. Effect on cell proliferation was performed using the CellTiter-Blue*® viability assay or the CellTiter-Glo© Viability Assay as recommended by the manufacturer (Promega). […]. Fluorescence signal was measured at 560ex/590em nm using the Cytation3 multimodal plate reader (BioTek).
measured_endpoint: pEC50
Keep in mind that pEC50 stands for -log10 of concentration in molar terms.

Quote pEC50 reported for CN1CCN(c2cc(C(=O)Nc3cc4cc(-c5cnn(C)c5)ccc4cn3)ccn2)CC1 [Compound 12] please.
7.04

* * *

System: MCF7
Assay: CellTiter-Glo Viability Assay, breast cancer
Type: cell-based
Conditions: Homo sapiens, 96 h; MCF7, breast cancer, four days; read-out: EC50
measured_endpoint: EC50 (nM)
Reply numerically in nM, unit not repeated.

Quote EC50 reported for CN1CCC(Oc2ccc(NC(=O)c3n[nH]c4cc(F)c(-c5cnn(C)c5)cc34)cc2)CC1 please.
3390

Quote EC50 reported for Cn1ncc(-c2ccc3cnc(NC(=O)c4cccc(CN5CCCC5)c4)cc3c2)c1CN1CCCCC1 please.
1420

* * *

Each entry below carries its recorded EC50.
Test system: lung cancer (4 cell lines)
Test: CellTiter-Glo Viability Assay, lung cancer
Type: cell-based
Conditions: Homo sapiens, NCI-H522, read-out: Lung cancer, EC50 (μM) NCI-H522
Reply numerically in µM, unit not repeated.

Here's what some known entries look like.
CN1CCC(N(C)c2cc(C(=O)Nc3cc4cc(-c5cnn(C)c5)ccc4cn3)ccn2)CC1 0.119
CN1CCN(c2cc(C(=O)Nc3cc4cc(-c5cnn(C)c5)ccc4cn3)ccn2)CC1 0.133

Quote EC50 reported for CN1CCN(C(=O)C(C)(C)c2ccc(C(=O)Nc3cn4cc(-c5ccncc5)ccc4n3)cc2)CC1 please.
1.99

* * *

Molecular target: MAP4K1 (HPK1) (Homo sapiens, UniProt Q92918)
Sequence (Q92918 whole entry): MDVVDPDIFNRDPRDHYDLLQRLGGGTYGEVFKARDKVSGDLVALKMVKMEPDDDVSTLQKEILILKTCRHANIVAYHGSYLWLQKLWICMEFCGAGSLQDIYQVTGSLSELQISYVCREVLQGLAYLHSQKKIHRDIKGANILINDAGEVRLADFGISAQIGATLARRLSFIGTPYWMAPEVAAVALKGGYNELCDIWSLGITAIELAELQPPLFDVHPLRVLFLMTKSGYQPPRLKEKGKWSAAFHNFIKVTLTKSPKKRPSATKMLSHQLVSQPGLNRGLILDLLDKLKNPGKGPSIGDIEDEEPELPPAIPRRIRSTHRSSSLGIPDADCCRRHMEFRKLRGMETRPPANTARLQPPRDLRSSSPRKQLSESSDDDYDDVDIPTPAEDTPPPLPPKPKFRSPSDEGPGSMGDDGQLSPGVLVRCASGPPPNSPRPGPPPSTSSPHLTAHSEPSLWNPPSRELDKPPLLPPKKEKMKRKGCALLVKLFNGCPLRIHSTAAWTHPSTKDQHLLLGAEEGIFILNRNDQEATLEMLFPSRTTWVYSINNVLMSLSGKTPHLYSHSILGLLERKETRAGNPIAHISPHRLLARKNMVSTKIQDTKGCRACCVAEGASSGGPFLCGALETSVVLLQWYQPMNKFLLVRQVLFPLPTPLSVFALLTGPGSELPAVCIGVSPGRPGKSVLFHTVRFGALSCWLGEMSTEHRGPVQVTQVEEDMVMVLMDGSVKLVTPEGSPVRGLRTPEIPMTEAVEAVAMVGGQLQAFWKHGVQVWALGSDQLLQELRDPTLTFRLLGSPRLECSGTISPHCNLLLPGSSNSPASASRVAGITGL
measured_endpoint: IC50
Field note: include the unit after the figure.

Report value: IC50, system: MAP4K1 (HPK1) (Homo sapiens, UniProt Q92918), molecule: CN1CCN(c2cc(C(=O)Nc3cc4cc(-c5cnn(C)c5)ccc4cn3)ccn2)CC1
29 nM

* * *

Each entry below carries its recorded EC50.
Target: CLK2 (Homo sapiens, UniProt P49760)
Construct: purchased Thermo Fisher (Life Technologies), Z'-LYTE Kinase Assay Kits
Sequence (P49760 whole entry): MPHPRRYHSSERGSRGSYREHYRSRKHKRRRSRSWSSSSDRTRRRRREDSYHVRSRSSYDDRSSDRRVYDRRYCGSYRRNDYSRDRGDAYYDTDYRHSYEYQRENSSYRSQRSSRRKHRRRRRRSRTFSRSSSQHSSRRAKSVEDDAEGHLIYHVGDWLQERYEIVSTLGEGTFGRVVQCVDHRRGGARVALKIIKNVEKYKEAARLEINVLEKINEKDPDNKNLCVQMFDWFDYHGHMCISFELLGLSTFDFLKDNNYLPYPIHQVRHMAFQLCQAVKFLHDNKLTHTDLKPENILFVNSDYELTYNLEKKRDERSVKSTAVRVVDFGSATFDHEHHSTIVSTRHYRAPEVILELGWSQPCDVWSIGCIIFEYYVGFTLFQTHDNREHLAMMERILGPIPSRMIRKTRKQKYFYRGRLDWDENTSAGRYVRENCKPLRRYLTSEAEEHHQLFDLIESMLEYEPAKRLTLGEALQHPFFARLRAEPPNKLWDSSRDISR
Assay: CLK2 kinase activity assay (Z-lyte, Ser/Thr 6 peptide)
Format: biochemical
Details: recombinant CLK2 kinase, ATP 60 μM; read-out: EC50
Reply numerically in nM, unit not repeated.

CN1CCC2(CC1)CN(c1cc(C(=O)Nc3cc4cc(-c5cnn(C)c5CO)ccc4cn3)ccn1)C2 2.6
CN1CCCn2cc(nn2)-c2nccc3[nH]c(nc23)-c2n[nH]c3ccc(cc23)-c2cncc(c2)C1 2.8
CC(C)Nc1cncc(-c2ccc3cnc(NC(=O)c4cn(C5CCN(CCF)CC5)nn4)cc3c2)n1 4
CN(C)CCOc1cc(C(=O)Nc2cc3cc(-c4cnn(C)c4)ccc3cn2)ccn1 1.9
O=C(Nc1c[nH]nc1-c1nc2c(-c3cccc(F)c3)cncc2[nH]1)c1cccnc1 3.1
Cn1cc(-c2ccc3cnc(NC(=O)c4ccc5c(c4)CNCC5)cc3c2)cn1 1.9
[2H]c1c([2H])c([2H])c(/C=C/C(=O)Nc2cc3cc(-c4cncn4C)ccc3cn2)c([2H])c1[2H] 3.4
CS(=O)(=O)NCc1cc(F)cc(-c2nccc3[nH]c(-c4n[nH]c5ccc(-c6cncc(NC(=O)C7CCC7)c6)cc45)cc23)c1 9.7
CN1CCC(Oc2ccc(NC(=O)c3n[nH]c4ccc(-c5cncc(N)c5)cc34)cc2)CC1 1
CN(C)Cc1cncc(-c2ccc3[nH]nc(-c4nc5c(-c6cccc(F)c6)cncc5[nH]4)c3c2)c1 1

Quote EC50 reported for CN1CCC(Sc2ccc3cnc(NC(=O)c4ccnc(SC5CCN(C)CC5)c4)cc3c2)CC1 please.
4.5

Quote EC50 reported for O=C1CCc2cccc(c2)-c2cncc3[nH]c(nc23)-c2n[nH]c3ccc(cc23)-c2cncc(c2)N1 please.
1.9

Quote EC50 reported for CC(C)Oc1ccc(C(=O)Nc2cc3cc(-c4cnc5n4CCNC5)ccc3cn2)cc1 please.
2

Quote EC50 reported for CN1CCCCN(C)c2nccc3[nH]c(nc23)-c2n[nH]c3ccc(cc23)-c2cncc(c2)C1 please.
1.6

Quote EC50 reported for CN1CCN(c2ccc(C(=O)Nc3cc4cc(-c5nncs5)ccc4cn3)cn2)CC1 please.
2

Quote EC50 reported for Nc1cncc(-c2ccc3cnc(NC(=O)c4ccc(OC5CCNCC5)cc4)cc3c2)c1 please.
1

* * *

Tested on: haematopoietic & lymphoid tumors (13 cell lines)
Experiment: CellTiter-Glo Viability Assay, haematopoietic & lymphoid tumors
Type: cell-based
Details: Homo sapiens; TF-1 cell line; inhibition of cancer cell proliferation; read-out: Haematopoietic & Lymphoid tumors, EC50 (μM) TF-1
Label T when EC50 < 0.4 µM; otherwise F.

Answered cases to consult:
molecule	category_label
O=C1CCc2cccc(c2)-c2cncc(c2)NC(=O)c2n[nH]c3ccc(cc23)-c2cncc(c2)CN1 [Compound 62]	F
Cc1n[nH]c2ccc(-c3cncc(N[C@H]4CC[C@@H](N)CC4)n3)cc12 [Compound 64]	F
CC(C)Nc1cncc(-c2ccc3cnc(NC(=O)c4cn(C5CCN(CCF)CC5)nn4)cc3c2)n1 [Compound 85]	T
O=C(Nc1ccc(OCCN2CCCC2)cc1)c1n[nH]cc1/C=C/c1cccnc1 [Compound 92]	F
CC(C)CC(=O)Nc1cncc(-c2ccc3[nH]nc(-c4cc5c(N6CCCCC6)cncc5[nH]4)c3c2)c1 [Compound 50]	F

Record Cc1ncc(-c2ccc3cnc(NC(=O)c4cnn(C5CCN(C)CC5)c4)cc3c2)o1 [Compound 83] : is its EC50 strictly below 0.4 µM?
T

Record CN(C)Cc1cncc(-c2cnc3[nH]nc(-c4nc5c(-c6cc(F)cc(N7CCOCC7)c6)cncc5[nH]4)c3c2)c1 [Compound 46] : is its EC50 strictly below 0.4 µM?
F

* * *

Test system: haematopoietic & lymphoid tumors (13 cell lines)
Assay: CellTiter-Glo Viability Assay, haematopoietic & lymphoid tumors
Type: cell-based
Settings: Homo sapiens, DND41; DND-41 cell line; inhibition of cancer cell proliferation; read-out: Haematopoietic & Lymphoid tumors, EC50 (μM) DND-41
measured_endpoint: EC50 (µM)
Reply numerically in µM, unit not repeated.

CN1CCN(c2cc(C(=O)Nc3cc4cc(-c5nnc(N(C)C)s5)ccc4cn3)ccn2)CC1 0.914
Cc1ncc(-c2ccc3cnc(NC(=O)c4cnn(C5CCN(C)CC5)c4)cc3c2)o1 0.185
CN(C)C1CN(c2cc(C(=O)Nc3cc4cc(-c5cnn(C)c5)ccc4cn3)ccn2)C1 0.774

Report value: EC50, system: haematopoietic & lymphoid tumors (13 cell lines), compound: CN1CCCn2cc(nn2)-c2nccc3[nH]c(nc23)-c2n[nH]c3ccc(cc23)-c2cncc(c2)C1
2.38

* * *

System: ZR-75-1
Assay: CellTiter-Glo Viability Assay, breast cancer
Format: cell-based
Details: Homo sapiens, 96 h; ZR-75-1, breast cancer, four days; read-out: EC50
measured_endpoint: pEC50
Keep in mind that pEC50 stands for -log10 of concentration in molar terms.

CN(C)C1CN(c2cc(C(=O)Nc3cc4cc(-c5cnn(C)c5)ccc4cn3)ccn2)C1 5.95
CN1CCCCN(C)c2nccc3[nH]c(nc23)-c2n[nH]c3ccc(cc23)-c2cncc(c2)C1 6.28
CN1CCN(c2cc(Nc3ncc4c(-c5ccc6ncccc6c5)c[nH]c4n3)ccn2)CC1 5.53
Cn1cc(-c2ccc3cnc(NC(=O)c4ccc5c(c4)CNCC5)cc3c2)cn1 6.01
Cc1n[nH]c2ccc(-c3cncc(N[C@H]4CC[C@@H](N)CC4)n3)cc12 6.68
Cc1n[nH]c2cc(F)c(-c3cncc(CN4CCNCC4)c3)cc12 5.17
CN(C)CCOc1cc(C(=O)Nc2cc3cc(-c4cnn(C)c4)ccc3cn2)ccn1 6.33
O=C1COc2cccc(c2)-c2cncc3[nH]c(nc23)-c2n[nH]c3ccc(cc23)-c2cncc(c2)N1 5.16

Quote pEC50 reported for Cn1ncc(-c2ccc3cnc(NC(=O)c4cccc(CN5CCCC5)c4)cc3c2)c1CN1CCCCC1 please.
6.15

Quote pEC50 reported for CC(C)CC(=O)Nc1cncc(-c2ccc3[nH]nc(-c4cc5c(N6CCCCC6)cncc5[nH]4)c3c2)c1 please.
5.96

Quote pEC50 reported for CN1CCC(Oc2ccc(NC(=O)c3n[nH]c4cc(F)c(-c5cnn(C)c5)cc34)cc2)CC1 please.
5.73

Quote pEC50 reported for CN1CCN(c2cc(C(=O)Nc3cc4cc(-c5cnn(C)c5)c(F)cc4cn3)ccn2)CC1 please.
6.39

Quote pEC50 reported for CN1CCC2(CC1)CN(c1cc(C(=O)Nc3cc4cc(-c5cnn(C)c5)ccc4cn3)ccn1)C2 please.
6.44

Quote pEC50 reported for CN1CCC(C(=O)Nc2c[nH]nc2-c2nc3c(-c4ccc(F)s4)cccc3[nH]2)CC1 please.
6.67
